# system-under-test: Replicase polyprotein 1ab (Severe acute respiratory syndrome coronavirus 2)
# protocol-notes: Inhibition of SARS-CoV-2 3CL-Pro proteolytic cleavage of a dual-labeled substrate by FRET at 1mM DTT.
# Format: functional
# Parameters: assay stage
Outcome codes: yes (1) (active), no (0) (inactive)

INSERT INTO measurements (compound, class_label) VALUES
  ('COc1ncc(-c2ccc3nccc(-c4ccnnc4)c3c2)cc1NS(=O)(=O)c1ccc(F)cc1F', 'no (0)'),
  ('Cc1ccc(S(=O)(=O)N[C@@H](Cc2ccccc2)C(=O)CCl)cc1', 'yes (1)'),
  ('Cc1c(-c2ccc(N3CCc4cccc(C(=O)Nc5nc6ccccc6s5)c4C3)nc2C(=O)O)cnn1CC12CC3CC(CC(C3)C1)C2', 'no (0)'),
  ('CCN1CCN(C(c2ccc(C(F)(F)F)cc2)c2ccc3cccnc3c2O)CC1 (stereo unspecified)', 'yes (1)'),
  ('O=C(NC(=S)N1CCCc2ccccc21)c1ccccc1', 'no (0)'),
  ('Cc1ccc(-n2sc3ccccc3c2=O)cc1', 'yes (1)'),
  ('O=c1cc(-c2ccccc2)oc2cc(O)c(O)c(O)c12', 'no (0)'),
  ('O=C1C(Cl)=C(N2CCOCC2)C(=O)N1c1ccc(Cl)c(Cl)c1', 'no (0)'),
  ('COc1ccc2[nH]c(S)nc2c1', 'no (0)'),
  ('O=C(c1cccs1)c1no[n+]([O-])c1C(=O)c1cccs1', 'no (0)'),
  ('O=[N+]([O-])c1ccc(Sc2cccc[n+]2[O-])c2nonc12', 'yes (1)');
